List of %Inh values.
Test system: PRKG2;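 note: KINOMEscan kinase panel screen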
settings: concentration: 1 μM, replicates: in singlicate; n = 1
Your answer is read as %, so omit the unit and give the number.

Here's what some known entries look like.
[
  {
    "compound": "Cc1cc(Nc2nc(-c3cccc(C)n3)nc3ccccc23)ccn1 [GW872411]",
    "%Inh (%)": 0
  },
  {
    "compound": "O=C(Nc1ccc2c(c1)OCO2)NC1CCN(c2ccnc(NCc3ccc(F)cc3)n2)CC1 [GSK1379859]",
    "%Inh (%)": 0
  },
  {
    "compound": "Cc1cccc(-c2nc(Nc3ccc4c(cnn4C)c3)c3ccccc3n2)n1 [GW876731]",
    "%Inh (%)": 0
  },
  {
    "compound": "Fc1cccc(CSc2nnc(-c3ccc4c(c3)CCO4)o2)c1",
    "%Inh (%)": 26
  },
  {
    "compound": "Cc1ccc(Oc2ccc(Nc3ncnc4cc[nH]c34)cc2C)cn1",
    "%Inh (%)": 23
  }
]

API: the following record is the query input.
Request: Tell me measured %Inh for Cc1nnc(-c2ccc(C)c(-c3ccc(C(=O)O)cc3)c2)o1 [GW608005] please.
Result: 0
